These data points were gathered from ChEMBL document CHEMBL4251704.

The entries below are paired with their reported bioavailability.
- protocol: Oral bioavailability in mouse at 3 mg/kg
- Format: ADME, organism-based
- study_conditions: in vivo

COc1ncc(-c2ccc3ncc(Cl)c(=O)n3c2)cc1NS(=O)(=O)c1ccc(F)cc1F: 108%

Would you kindly look at the next entry?
The reported bioavailability of the compound `COc1ncc(-c2ccc3nccc(=O)n3c2)cc1NS(=O)(=O)c1ccc(F)cc1F` was 139%

* * *

- test_system: Phosphatidylinositol 4,5-bisphosphate 3-kinase catalytic subunit gamma isoform (Homo sapiens, UniProt P48736)
- Sequence (P48736 whole entry, canonical isoform): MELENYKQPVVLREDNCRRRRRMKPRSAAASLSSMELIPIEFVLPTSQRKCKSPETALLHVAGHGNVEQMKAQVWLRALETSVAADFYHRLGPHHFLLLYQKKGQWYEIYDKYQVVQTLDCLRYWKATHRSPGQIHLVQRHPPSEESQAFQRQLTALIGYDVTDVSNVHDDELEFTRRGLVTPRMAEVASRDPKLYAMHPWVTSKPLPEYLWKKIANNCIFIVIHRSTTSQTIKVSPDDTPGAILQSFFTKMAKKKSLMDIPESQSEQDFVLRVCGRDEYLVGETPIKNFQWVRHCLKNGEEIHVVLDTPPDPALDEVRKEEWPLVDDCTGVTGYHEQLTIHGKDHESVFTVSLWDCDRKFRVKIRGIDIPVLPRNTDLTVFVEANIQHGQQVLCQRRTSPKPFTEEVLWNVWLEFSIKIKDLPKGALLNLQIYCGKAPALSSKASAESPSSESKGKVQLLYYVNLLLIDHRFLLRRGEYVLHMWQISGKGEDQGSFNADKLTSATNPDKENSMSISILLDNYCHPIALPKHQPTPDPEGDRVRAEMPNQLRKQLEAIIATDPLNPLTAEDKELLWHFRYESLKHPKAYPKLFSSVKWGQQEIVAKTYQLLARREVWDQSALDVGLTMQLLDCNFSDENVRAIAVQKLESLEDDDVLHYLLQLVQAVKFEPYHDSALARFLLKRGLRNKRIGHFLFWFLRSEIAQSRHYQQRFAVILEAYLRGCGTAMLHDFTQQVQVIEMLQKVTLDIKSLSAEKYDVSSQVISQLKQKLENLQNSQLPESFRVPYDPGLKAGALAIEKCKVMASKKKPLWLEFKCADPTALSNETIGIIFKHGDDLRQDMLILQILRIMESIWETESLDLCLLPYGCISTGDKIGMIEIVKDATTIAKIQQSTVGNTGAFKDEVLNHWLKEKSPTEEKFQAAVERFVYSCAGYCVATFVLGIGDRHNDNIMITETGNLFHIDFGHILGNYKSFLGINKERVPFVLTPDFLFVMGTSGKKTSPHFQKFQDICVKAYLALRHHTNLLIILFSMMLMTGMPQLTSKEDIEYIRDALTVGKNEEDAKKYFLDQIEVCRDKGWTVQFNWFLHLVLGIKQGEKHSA
- protocol: Inhibition of human PI3K p120gamma using phosphatidylinositol 4,5-bisphosphate as substrate after 30 mins by HTRF assay
attribute_measured: pIC50
Entry type: numeric. Quantity: pIC50, the -log10 of concentration in molar units.

The reported pIC50 of the compound `COc1ncc(-c2ccc3ncc(Cl)c(=O)n3c2)cc1NS(=O)(=O)c1ccc(F)cc1F` was 9.00
